TESTED_TARGET: Muscarinic acetylcholine receptor M5 (Homo sapiens)
EXPERIMENT_SUMMARY: potentiation of ACh EC20 at hM5 – cell-based, calcium, SAR follow-up (AID 2198)
COND: CHO-K1 hM5, Fluo-4 calcium
Activity calls are given as the source filed them.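 The calls were made as follows: active = mean EC50 under 30 µM; inactive = the rest.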
Just give me one of these, please: active, inactive

Would you please look over these solved cases?
Identify the outcome logged in this assay for the molecule shown: Cc1ccccc1CN1C(=O)C(=O)c2cc(OC(F)(F)F)ccc21 active

So what was the verdict on O=C1C(=O)N(Cc2ccc(Br)cc2F)c2c(Cl)cccc21 in this test? active

Query: recorded result category for COc1ccc(CN2C(=O)C(=O)c3cc(OC(F)(F)F)ccc32)cc1 in this test active

Next:
Please share the test call associated with O=C1C(=O)N(Cc2ccc(C(F)(F)F)cc2)c2ccc(Cl)cc21 . active

Which outcome did this test record for the molecule COc1ccc(CN2C(=O)C(=O)c3ccccc32)cc1 ? inactive

Which result was noted for this molecule in the test: O=C1C(=O)N(Cc2ccccc2C(F)(F)F)c2ccc(F)cc21 inactive

---

TESTED_TARGET: Muscarinic acetylcholine receptor M5 (Homo sapiens) (UniProt P08912)
Sequence (P08912 whole entry, looked up): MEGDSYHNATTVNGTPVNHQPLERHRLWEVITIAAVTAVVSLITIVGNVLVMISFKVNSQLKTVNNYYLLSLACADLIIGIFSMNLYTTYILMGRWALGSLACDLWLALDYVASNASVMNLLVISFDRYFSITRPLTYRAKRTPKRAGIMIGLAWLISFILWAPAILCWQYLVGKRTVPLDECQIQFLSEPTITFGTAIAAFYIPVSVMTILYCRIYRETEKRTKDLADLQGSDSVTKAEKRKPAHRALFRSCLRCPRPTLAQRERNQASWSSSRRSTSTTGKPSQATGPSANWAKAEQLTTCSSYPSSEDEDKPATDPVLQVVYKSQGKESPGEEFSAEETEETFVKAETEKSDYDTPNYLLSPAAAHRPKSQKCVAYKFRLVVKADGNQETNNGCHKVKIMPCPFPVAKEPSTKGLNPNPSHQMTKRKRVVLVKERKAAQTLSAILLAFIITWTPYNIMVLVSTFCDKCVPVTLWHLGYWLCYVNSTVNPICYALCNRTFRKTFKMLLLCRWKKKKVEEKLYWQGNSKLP
EXPERIMENT_SUMMARY: potentiation of ACh EC20 at hM5 – cell-based, calcium, SAR follow-up (AID 2198)
COND: CHO-K1 hM5, Fluo-4 calcium
The source made the active and inactive calls.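 The calls were made as follows: active = mean EC50 under 30 µM; inactive = the rest.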
Can you answer with just one of these options? y = active, n = inactive

The following molecules have reported results that may help.
Just curious, what result did O=C1C(=O)N(Cc2ccc(C(F)(F)F)cc2)c2ccc(OC(F)(F)F)cc21 get here? y

Would you mind telling me which call this test gave O=C1C(=O)N(Cc2ccccc2C(F)(F)F)c2c(F)cccc21 ? n

Please let me know the test result on file for O=C1C(=O)N(Cc2ccc(Br)cc2F)c2ccc(OC(F)(F)F)cc21 . n

Query: recorded result category for COc1cccc(CN2C(=O)C(=O)c3c(Cl)ccc(Cl)c32)c1 in this test y

Any idea what this test logged for O=C1C(=O)N(Cc2ccc(Br)cc2)c2c(F)cccc21 ? y

More entries:
Any idea what this test logged for O=C1C(=O)N(Cc2ccccc2Cl)c2ccc(OC(F)(F)F)cc21 ? y

// return assay outcome for O=C1C(=O)N(Cc2ccc(C(F)(F)F)cc2)c2ccccc21 y

How was COc1ccc(CN2C(=O)C(=O)c3cccc(Cl)c32)cc1 classified in this test? y

Hello, I am checking results. What call was entered for COc1cccc(CN2C(=O)C(=O)c3cc(OC(F)(F)F)ccc32)c1 ? y

Could you check what this test reported for O=C1C(=O)N(Cc2ccc(C(F)(F)F)cc2)c2c(F)cccc21 ? y

Record lookup: outcome of this test for O=C1C(=O)N(Cc2ccc(OC(F)(F)F)cc2)c2ccc(OC(F)(F)F)cc21 ? y
